The measured values listed here are drawn from ChEMBL document CHEMBL1153319.

Collected Activity values appear next to each entry.
TARGET_UNDER_TEST: Sigma non-opioid intracellular receptor 1 (Cavia porcellus) (UniProt Q60492)
Sequence (Q60492 whole entry): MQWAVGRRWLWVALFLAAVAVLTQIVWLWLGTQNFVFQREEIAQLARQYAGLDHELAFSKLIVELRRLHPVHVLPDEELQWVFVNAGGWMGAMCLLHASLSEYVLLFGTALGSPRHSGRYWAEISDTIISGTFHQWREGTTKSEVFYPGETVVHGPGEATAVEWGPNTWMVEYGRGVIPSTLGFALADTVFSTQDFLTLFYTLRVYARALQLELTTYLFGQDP
ASSAY_INFO: Displacement of [3H](+)-pentazocine from sigma 1 receptor in guinea pig brain membrane at 1 uM by scintillation analysis
Assay type: cell membranes
Give just the number in %; leave the unit off.

Known results for molecules:
{"MOLECULE": "COc1ccc(CN2C[C@H]3C(c4ccccc4)CC(=O)[C@@H]2CN3Cc2ccccc2)cc1 (single isomer, unassigned; form 2)", "READOUT_KIND": "Activity", "ENDPOINT_UNIT": "%", "MEAS_VALUE": 14}
{"MOLECULE": "C=CCN1C[C@H]2c3[nH]c4ccccc4c3C[C@@H]1CN2Cc1ccc(OC)cc1OC", "READOUT_KIND": "Activity", "ENDPOINT_UNIT": "%", "MEAS_VALUE": 11}
{"MOLECULE": "C=CCN1C[C@@H]2c3[nH]c4ccccc4c3C[C@H]1CN2Cc1ccc(OC)cc1", "READOUT_KIND": "Activity", "ENDPOINT_UNIT": "%", "MEAS_VALUE": 44}

Here is the next item to consider.
(Q) Which Activity value belongs to COc1ccc(CN2C[C@@H]3[C@@H](c4ccccc4)CC(=O)[C@H]2CN3Cc2ccccc2)cc1 ?
(A) 8

----------
ASSAY_INFO: Displacement of [3H]1,3-ditolylguanine from sigma 2 receptor in rat liver membrane by solid scintillation analysis
Format: cell membranes
Values of Ki strictly less than 0.7 µM map to condition met, and values of at least 0.7 µM map to condition not met.

{"SMILES_STRING": "C=CCN1C[C@@H]2[C@@H](Oc3ccccc3)CC[C@H]1CN2Cc1ccc(OC)cc1", "CLASS_LABEL": "condition not met"}
{"SMILES_STRING": "C=CCN1C[C@H]2[C@H](OCc3ccccc3)CC[C@@H]1CN2Cc1ccc(OC)cc1OC", "CLASS_LABEL": "condition not met"}
{"SMILES_STRING": "C=CCN1C[C@@H]2[C@H](Oc3ccccc3)CC[C@H]1CN2Cc1ccc(OC)cc1OC", "CLASS_LABEL": "condition met"}
{"SMILES_STRING": "C=CCN1C[C@H]2/C(=C\\c3ccccc3)CC[C@@H]1CN2Cc1ccc(OC)cc1", "CLASS_LABEL": "condition met"}
{"SMILES_STRING": "C=CCN1C[C@H]2c3[nH]c4ccc(OC)cc4c3C[C@@H]1CN2Cc1ccc(OC)cc1OC", "CLASS_LABEL": "condition not met"}
{"SMILES_STRING": "C=CCN1C[C@@H]2[C@@H](Oc3ccccc3)CC[C@H]1CN2Cc1ccc(OC)cc1OC", "CLASS_LABEL": "condition not met"}

Now look at this entry.
(Q) Does the reported Ki of C=CCN1C[C@@H]2c3nc4ccccc4c(C)c3C[C@H]1CN2Cc1ccc(OC)cc1OC stay below 0.7 µM?
(A) condition not met

----------
TARGET_UNDER_TEST: Sigma non-opioid intracellular receptor 1 (Cavia porcellus)
ASSAY_INFO: Displacement of [3H](+)-pentazocine from sigma 1 receptor in guinea pig brain membrane by scintillation analysis
READOUT_KIND: pKi
API: returns pKi as number; meaning -log10 of concentration in mol/L.

Known results for compounds:
{"SMILES_STRING": "C=CCN1C[C@@H]2c3[nH]c4ccc(OC)cc4c3C[C@H]1CN2Cc1ccc(OC)cc1", "READOUT_KIND": "pKi", "MEAS_VALUE": 4.98}
{"SMILES_STRING": "C=CCN1C[C@H]2[C@H](Oc3ccccc3)CC[C@@H]1CN2Cc1ccc(OC)cc1", "READOUT_KIND": "pKi", "MEAS_VALUE": 5.79}
{"SMILES_STRING": "C=CCN1C[C@H]2c3nc4ccccc4c(C)c3C[C@@H]1CN2Cc1ccc(OC)cc1OC", "READOUT_KIND": "pKi", "MEAS_VALUE": 5.79}
{"SMILES_STRING": "C=CCN1C[C@@H]2[C@@H](Oc3ccccc3)CC[C@H]1CN2Cc1ccc(OC)cc1OC", "READOUT_KIND": "pKi", "MEAS_VALUE": 5.80}
{"SMILES_STRING": "C=CCN1C[C@H]2/C(=C\\c3ccccc3)CC[C@@H]1CN2Cc1ccc(OC)cc1OC", "READOUT_KIND": "pKi", "MEAS_VALUE": 6.50}
{"SMILES_STRING": "C=CCN1C[C@H]2[C@@H](OCc3ccccc3)CC[C@@H]1CN2Cc1ccc(OC)cc1", "READOUT_KIND": "pKi", "MEAS_VALUE": 5.98}
{"SMILES_STRING": "C=CCN1C[C@@H]2c3[nH]c4ccc(OC)cc4c3C[C@H]1CN2Cc1ccc(OC)cc1OC", "READOUT_KIND": "pKi", "MEAS_VALUE": 5.20}
{"SMILES_STRING": "C=CCN1C[C@@H]2c3nc4ccccc4c(C)c3C[C@H]1CN2Cc1ccc(OC)cc1OC", "READOUT_KIND": "pKi", "MEAS_VALUE": 5.26}
{"SMILES_STRING": "C=CCN1C[C@@H]2[C@@H](Oc3ccccc3)CC[C@H]1CN2Cc1ccc(OC)cc1", "READOUT_KIND": "pKi", "MEAS_VALUE": 5.26}
{"SMILES_STRING": "C=CCN1C[C@H]2[C@H](Oc3ccccc3)CC[C@@H]1CN2Cc1ccc(OC)cc1OC", "READOUT_KIND": "pKi", "MEAS_VALUE": 5.55}

(Q) Which pKi value belongs to C=CCN1C[C@@H]2[C@H](Oc3ccccc3)CC[C@H]1CN2Cc1ccc(OC)cc1OC ?
(A) 5.39

----------
ASSAY_INFO: Cytotoxicity against human LCLC-103H cells after 96 hrs by crystal violet staining
Format: functional, cell-based
Collected pIC50 values appear next to each entry.
API: returns pIC50 as number; meaning -log10 of concentration in mol/L.

Known results for molecules:
{"SMILES_STRING": "C=CCN1C[C@H]2c3[nH]c4ccccc4c3C[C@@H]1CN2Cc1ccc(OC)cc1OC", "pIC50": 5.06}
{"SMILES_STRING": "C=CCN1C[C@@H]2c3[nH]c4ccccc4c3C[C@H]1CN2Cc1ccc(OC)cc1", "pIC50": 4.89}

Here is the next item to consider.
(Q) Which pIC50 value belongs to C=CCN1C[C@@H]2/C(=C\c3ccccc3)CC[C@H]1CN2Cc1ccc(OC)cc1 ?
(A) 4.77

----------
Species: Rattus norvegicus
ASSAY_INFO: Displacement of [3H]1,3-ditolylguanine from sigma 2 receptor in rat liver membrane by solid scintillation analysis at 1 uM
Format: cell membranes
Outcome label depends on Activity relative to 10%: at/above gives YES, below gives NO.

Look over these answered cases.
{"MOLECULE": "C=CCN1C[C@H]2c3[nH]c4ccc(OC)cc4c3C[C@@H]1CN2Cc1ccc(OC)cc1", "CLASS_LABEL": "YES"}
{"MOLECULE": "COc1ccc(CN2C[C@@H]3[C@@H](c4ccccc4)CC(=O)[C@H]2CN3Cc2ccccc2)cc1", "CLASS_LABEL": "NO"}
{"MOLECULE": "COc1ccc(CN2C[C@@H]3[C@H](c4ccccc4)CC(=O)[C@H]2CN3Cc2ccccc2)cc1", "CLASS_LABEL": "NO"}
{"MOLECULE": "COc1ccc(CN2C[C@H]3C(c4ccccc4)CC(=O)[C@@H]2CN3Cc2ccccc2)cc1 (single isomer, unassigned; form 1)", "CLASS_LABEL": "NO"}
{"MOLECULE": "C=CCN1C[C@H]2N(Cc3ccc(OC)cc3)C[C@@H]1CC[C@]21Cc2ccccc2CO1", "CLASS_LABEL": "YES"}
{"MOLECULE": "C=CCN1C[C@H]2c3[nH]c4ccccc4c3C[C@@H]1CN2Cc1ccc(OC)cc1", "CLASS_LABEL": "NO"}
{"MOLECULE": "COc1ccc(CN2C[C@H]3C(c4ccccc4)CC(=O)[C@@H]2CN3Cc2ccccc2)cc1 (single isomer, unassigned; form 2)", "CLASS_LABEL": "NO"}
{"MOLECULE": "CCCN1CC2C(=O)C[C@@H](c3ccccc3)C1CN2Cc1ccc(OC)cc1 (stereo not given in full)", "CLASS_LABEL": "YES"}

Now look at this entry.
(Q) Would you say C=CCN1C[C@@H]2c3[nH]c4ccc(OC)cc4c3C[C@H]1CN2Cc1ccc(OC)cc1 shows Activity at minimum 10%?
(A) NO

----------
TARGET_UNDER_TEST: Sigma non-opioid intracellular receptor 1 (Cavia porcellus) (UniProt Q60492)
ASSAY_INFO: Displacement of [3H](+)-pentazocine from sigma 1 receptor in guinea pig brain membrane at 1 uM by scintillation analysis
Assay type: cell membranes
Outcome label depends on Activity relative to 10%: at/above gives yes, below gives no.

{"MOLECULE": "CCCN1CC2C(=O)C[C@H](c3ccccc3)C1CN2Cc1ccc(OC)cc1 (some centres undefined)", "TARGET_UNDER_TEST": "Sigma non-opioid intracellular receptor 1 (Cavia porcellus) (UniProt Q60492)", "CLASS_LABEL": "no"}

(Q) Would you say COc1ccc(CN2C[C@@H]3[C@H](c4ccccc4)CC(=O)[C@H]2CN3Cc2ccccc2)cc1 shows Activity at minimum 10%?
(A) yes
